Listing of recorded ED50 by entry.
Tested on: Mus musculus
Assay: Hypothermic activity in ip dosed albino CF1 mouse assessed as effect on body temperature measured after 45 mins
Assay type: functional
Details: 0.75 h
property.measured: ED50

| compound | property.measured | endpoint.value |
| --- | --- | --- |
| CN(C)CCN(C)c1nnc2n1-c1ccc(Cl)cc1C(c1ccccc1)=NC2 | ED50 | 40 mg/kg |
| c1ccc(C2=NCc3nnc(N4CCOCC4)n3-c3ccccc32)cc1 | ED50 | > 50 mg/kg |
| CC1=NC(c2ccccc2)c2cc(Cl)ccc2-n2c1nnc2N1CCOCC1 (stereo unspecified) | ED50 | > 50 mg/kg |
| Cc1nnc2n1-c1ccc(Br)cc1C(c1ccccc1)=NC2 | ED50 | 20 mg/kg |
| Clc1ccc2c(c1)C(c1ccccc1)=NCc1nnc(Cl)n1-2 | ED50 | > 50 mg/kg |
| CN(C)c1nnc2n1-c1ccc(Cl)cc1C(c1ccccc1)=NC2 | ED50 | > 50 mg/kg |
| Clc1ccccc1C1=NCc2nncn2-c2ccccc21 | ED50 | > 50 mg/kg |
| CN(C)CCCN1c2ccccc2CCc2ccccc21.Cl [IMIPRAMINE HYDROCHLORIDE] | ED50 | > 50 mg/kg |
| Sc1nnc2n1-c1ccc(Cl)cc1C(c1ccccc1)=NC2 | ED50 | 9 mg/kg |
| CN(C)CCSc1nnc2n1-c1ccc(Cl)cc1C(c1ccccc1)=NC2 | ED50 | > 50 mg/kg |
| Brc1ccc2c(c1)C(c1ccccn1)=NCc1nncn1-2 | ED50 | > 50 mg/kg |
